The following molecules are listed with their measured EC50 values.
- Test system: M17-TAU P301L cells
- Assay Method Text: Tau-induced toxicity experiment: LDH leakage of retinoic acid incubated M17-TAU P301L cells
- Type: cell-based
- Protocol Conditions: Homo sapiens, Neuroblastoma cell, 168 h; reduction of LDH activity of retinoic acid incubated M17-TAU P301L neuroblastoma cells, 7 days
Provide the reading as a plain figure in nM.

1) COc1cccc(Cc2cccc(C(=O)NCCc3c[nH]c4ccc(Cl)cc34)c2)c1    125
2) O=C(NCCc1c[nH]c2ccc(Cl)cc12)c1ccc(Oc2cccc(F)c2)cc1    112
3) O=C(NCCc1c[nH]c2ccc(Cl)cc12)c1ccc(Cc2cccc(C(F)(F)F)c2)cc1    31

In one line, give reported EC50 of the entry `O=C(NCCc1c[nH]c2ccc(Cl)cc12)c1ccc(Cc2ccncc2)cc1` .
151

Item `O=C(NCCc1c[nH]c2ncc(Cl)cc12)c1ccc(Cc2cccc(F)c2)cc1` : provide EC50
1050

Provide one value: measured EC50 of `N#Cc1cccc(Cc2cccc(C(=O)NCCc3c[nH]c4ccc(Cl)cc34)c2)c1`
31

Supply measured EC50 of `O=C(NCCc1c[nH]c2ccc(-c3ccccc3)cc12)c1ccc(Cc2cccc(F)c2)cc1` in your reply.
537

Give recorded EC50. `O=C(NCCc1c[nH]c2ccc(Cl)cc12)c1cccc(Cc2cncc(F)c2)c1`
90

Please list EC50 recorded for the molecule `O=C(NCCc1c[nH]c2ccc(Cl)cc12)c1cccc(Cc2ccc(F)cc2)c1`
20

# return recorded EC50 for entry `O=C(NCCc1c[nH]c2ccc(F)cc12)c1cccc(Cc2cccc(F)c2)c1`
112

Supply reported EC50 belonging to this molecule: `O=C(NCCc1c[nH]c2ccc(Cl)cc12)c1ccc(CNCc2cccs2)cc1`
83

Tell us which EC50 value is on record for `O=C(NCCc1c[nH]c2ccc(Cl)cc12)c1ccc(Cc2cc(F)cc(F)c2)cc1`
111

----------
- System: M17-TAU P301L cells
- Assay Method Text: Tau-induced toxicity experiment: LDH leakage of retinoic acid incubated M17-TAU P301L cells
- Assay type: cell-based
- Protocol Conditions: Homo sapiens, Neuroblastoma cell, 168 h; reduction of LDH activity of retinoic acid incubated M17-TAU P301L neuroblastoma cells, 7 days
Quantity: EC50
# answer = value followed by unit

1) O=C(NCCc1c[nH]c2ccc(Cl)cc12)c1cccc(Cc2ccc(C(F)(F)F)cc2)c1    103 nM
2) O=C(NCCc1c[nH]c2ccc(Cl)cc12)c1ccc(Cc2cccnc2)cc1    117 nM
3) O=C(NCCc1c[nH]c2ccc(Cl)cc12)c1ccc(Cn2ccnc2)cc1    486 nM
4) O=C(NCCc1c[nH]c2ccc(Cl)cc12)c1ccc(Cn2cccn2)cc1    173 nM
5) N#Cc1ccc(Cc2ccc(C(=O)NCCc3c[nH]c4ccc(Cl)cc34)cc2)cc1    16 nM
6) O=C(NCCc1c[nH]c2ccc(Cl)cc12)c1cccc(CNCc2cccs2)c1    159 nM
7) O=C(NCCc1c[nH]c2ccc(N3CCOCC3)cc12)c1ccc(Cc2cccc(F)c2)cc1    166 nM
8) O=C(NCCc1c[nH]c2ccc(Cl)cc12)c1ccc(Cc2ccc(C(F)(F)F)cc2)cc1    22 nM

Note: attention shifts to another entry.
Quote M17-TAU P301L cells EC50 for entry `CN(c1ccccc1)c1ccc(C(=O)NCCc2c[nH]c3ccc(Cl)cc23)cc1` .
470 nM
